# System: 485176-168-R4-J1-PDC complex spheroid growth;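 note: spheroids exposed to compounds for seven days before readout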
# assayRemarks: Anticancer human tumor 485176-168-R4-J1-PDC patient-derived pancreatic adenocarcinoma cell line growth inhibition [RAS]; active = viability on the fitted dose curve at most 10% of control; inactive = the rest
# conditionContext: second compound 0.000949 µM; first compound 10 µM
# Description: RAS pathway inhibitors in Combinations in Complex Spheroids A high-throughput screen of multi-cell type tumor spheroids was designed to identify active combinations of RAS pathway inhibitors and targeted small molecules. Complex spheroids include a stromal component modeled by human endothelial cells (HUVEC) and fibroblasts modeled by human mesenchymal stem cells (MSCs). […] Compounds. […] If the clinical Cmax for an agent had not been determined, the highest concentration tested was 10 microM. […]
The reply should be one of these categories: active, inactive

>>> answerlabel("NC1c2ccccc2OC12CCN(c1cnc3c(N4CCCc5ncccc54)n[nH]c3n1)CC2 (stereo not given) + CCn1c(-c2cc(N3CCN(C)CC3)cnc2C(C)OC)c2c3cc(ccc31)-c1csc(n1)CC(NC(=O)C1CC1C)C(=O)N1CCCC(N1)C(=O)OCC(C)(C)C2")
"inactive"
>>> answerlabel("Cc1nc(N2CCC3(CC2)COC(C)C3N)c(CO)nc1Sc1ccnc(N)c1Cl (stereo not given) + CCn1c(-c2cccnc2C(C)OC)c2c3cc(ccc31)N1CCOC(CC(NC(=O)C(C(C)C)N(C)C(=O)C3(F)CCN(C(=O)C#CC(C)(C)N(C)C)CC3)C(=O)N3CCCC(N3)C(=O)OCC(C)(C)C2)C1")
"inactive"
>>> answerlabel("CC(C)NCC(C(=O)N1CCN(c2ncnc3c2C(C)CC3O)CC1)c1ccc(Cl)cc1 (stereo not given) + CCn1c(-c2cccnc2C(C)OC)c2c3cc(ccc31)N1CCOC(CC(NC(=O)C(C(C)C)N(C)C(=O)C3(F)CCN(C(=O)C#CC(C)(C)N(C)C)CC3)C(=O)N3CCCC(N3)C(=O)OCC(C)(C)C2)C1")
"inactive"

Incoming: Which outcome was assigned to CCC(CC)c1cc(NC2CCC(N)C2)n2nccc2n1 (stereo not given) + CCn1c(-c2cccnc2C(C)OC)c2c3cc(ccc31)N1CCOC(CC(NC(=O)C(C(C)C)N(C)C(=O)C3(F)CCN(C(=O)C#CC(C)(C)N(C)C)CC3)C(=O)N3CCCC(N3)C(=O)OCC(C)(C)C2)C1 in this test?
Outgoing: active

Incoming: In this assay, the call recorded for CC(C)NCC(C(=O)N1CCN(c2ncnc3c2C(C)CC3O)CC1)c1ccc(Cl)cc1 (stereo not given) + CCn1c(-c2cc(N3CCN(C)CC3)cnc2C(C)OC)c2c3cc(ccc31)-c1csc(n1)CC(NC(=O)C1CC1C)C(=O)N1CCCC(N1)C(=O)OCC(C)(C)C2 was what?
Outgoing: inactive
